Substrate: CIS R78G-EloB/C + F3 (human), Q9NSE2
Test: SPR
Conditions: remark: other sources report otherwise
QUANTITY MEASURED: pIC50
Recall that pIC50 is obtained by taking minus log10 of the concentration measured in molar.

Prompt: Form field: reported pIC50 of PVPDYTSIHIV (here or on the partner: phosphotyrosine at 595) [GHR pY595 peptide]
Completion: 5.70
